assay: Distribution coefficient between 1-Octanol and PBS buffer, logD of the compound at pH 6.5 incubated for 140 mins by HPLC anlaysis; assay type: physicochemical; conditions: 1-octanol/PBS buffer
measuredAttribute: logD at 2.333 h
Lab note: record just the number, no unit beside it.

Lookup: What value of measured logD at 2.333 h is listed for "NS(=O)(=O)c1nnc(NC(=O)CCC2CCCCC2)s1" ?
Found: 2.47

Lookup: Now consider "NS(=O)(=O)c1nnc(NC(=O)CN2CCOCC2)s1" and answer again.
Found: -0.97

Lookup: Now consider "CC(C)(C)CC(=O)Nc1nnc(S(N)(=O)=O)s1" and answer again.
Found: 1.55

---

assay: Permeability across apical to basolateral side in human Caco-2 cells assessed as drug recovery; type: ADME, cell-based; conditions: read-out: Drug recovery
Recorded recovery values for a group of molecules are listed next.
Just the number please, in %, no unit attached.

structurenotation=NS(=O)(=O)c1nnc(NC(=O)CCC2CCCCC2)s1 numericresult=35

Shift focus to the following entry.
Lookup: What value of measured recovery is listed for "CC(C)(C)CC(=O)Nc1nnc(S(N)(=O)=O)s1" ?
Found: 80

---

system: Enterococcus faecium; assay: Antibacterial activity against vancomycin-resistant Enterococcus faecium HM-952 infected in C57BL/6 mouse assessed as log reduction in bacterial colony forming unit in cecum at 20 mg/kg,po qd measured after 9 days of administration; format: functional; conditions: time 9 day
Recorded Activity values for a group of compounds are listed next.
Just the number please, in log10CFU, no unit attached.

compound=CC(C)(C)CC(=O)Nc1nnc(S(N)(=O)=O)s1 testedon="Enterococcus faecium" numericresult=2.36
compound=NS(=O)(=O)c1nnc(NC(=O)CN2CCOCC2)s1 testedon="Enterococcus faecium" numericresult=1.92
compound="CC(=O)Nc1nnc(S(N)(=O)=O)s1 [ACETAZOLAMIDE]" testedon="Enterococcus faecium" numericresult=2.59

Shift focus to the following entry.
Lookup: What value of measured Activity is listed for "NS(=O)(=O)c1nnc(NC(=O)CCC2CCCCC2)s1" ?
Found: 1.57

---

assay: Efflux ratio of apparent permeability across basolateral to apical over apical to basolateral side in human Caco2 cells; assay type: ADME, cell-based; conditions: Caco-2
Recorded efflux ratio values for a group of compounds are listed next.

structurenotation=CC(C)(C)CC(=O)Nc1nnc(S(N)(=O)=O)s1 result=2.22

Lookup: What value of measured efflux ratio is listed for "NS(=O)(=O)c1nnc(NC(=O)CCC2CCCCC2)s1" ?
Found: 2.17

---

test system: Enterococcus faecium; test: Antibacterial activity against vancomycin-resistant Enterococcus faecium HM-952 infected in C57BL/6 mouse assessed as log reduction in bacterial colony forming unit in feces at 20 mg/kg,po qd measured after 5 days of administration; assay type: functional; conditions: time 5 day
Recorded Activity values for a group of molecules are listed next.
Just the number please, in log10CFU, no unit attached.

Known results for molecules:
structurenotation=CC(=O)NC[C@H]1CN(c2ccc(N3CCOCC3)c(F)c2)C(=O)O1 numericresult=0.87
structurenotation=NS(=O)(=O)c1nnc(NC(=O)CCC2CCCCC2)s1 numericresult=1.13

Lookup: What value of measured Activity is listed for "CC(C)(C)CC(=O)Nc1nnc(S(N)(=O)=O)s1" ?
Found: 1.13

Lookup: Now consider "NS(=O)(=O)c1nnc(NC(=O)CN2CCOCC2)s1" and answer again.
Found: 1.13
